Assay: Whole blood stability, mouse
Format: in vitro ADME
Conditions: 30 min
Excerpt: The results of the assay on stability in blood and IC50 values for pancreatic cancer cell line KP4 are given below in Table 24.
Returns y if the recorded Whole Blood Stability % Remaining at 37° C. Mouse is greater than or equal to 70%, and n otherwise.

> print(dat)
                                   compound  label
1  CN(C)C(=O)[C@H]1Cc2c([nH]c3ccccc23)[C@H](c2ccc(S(=O)(=O)C3CCCC3)cc2)N1C(=O)CCl      n
2  COC(=O)c1ccc([C@H]2c3[nH]c4c(Br)cccc4c3C[C@H](C(=O)OC)N2C(=O)CCl)cc1      n
3  COC(=O)c1ccc([C@H]2c3[nH]c4ccccc4c3C[C@H](C(=O)OC(C)(C)C)N2C(=O)CCl)cc1      n
4  COC(=O)[C@H]1Cc2c([nH]c3ccccc23)[C@H](c2ccc(C(=O)OC(C)(C)C)cc2)N1C(=O)C(C)Cl (stereo partly drawn)      y
5  C[C@H]1Cc2c([nH]c3ccccc23)[C@H](c2ccc(S(=O)(=O)N[C@]34CC5C[C@H](C[C@H](C5)C3)C4)cc2)N1C(=O)CCl      y
6  CN(C)C(=O)[C@H]1Cc2c([nH]c3ccccc23)[C@H](C2CCN(C(=O)OC(C)(C)C)CC2)N1C(=O)CCl      y
